- System: Escherichia coli TOP10
- METHOD NOTES: shrunken log2 fold change of peptide-encoding DNA abundance (4.5 h post-induction vs induction); higher = less antimicrobial activity (less host growth inhibition)
- CONDITION PARAMETERS: time post-induction: 4.5 h; library: site-saturation at positions 5, 18, 19, 20
Measured shrunken log2 fold change, listed per entry.
MEASUREMENT TYPE: shrunken log2 fold change

{"MACROMOLECULE SEQUENCE": "RRIRLRPPRLPRPRPRPTMLPRP", "TEST RESULT": -0.335}
{"MACROMOLECULE SEQUENCE": "RRIRLRPPRLPRPRPRPIFEPRP", "TEST RESULT": -0.0366}
{"MACROMOLECULE SEQUENCE": "RRIRWRPPRLPRPRPRPNHQPRP", "TEST RESULT": -0.342}
{"MACROMOLECULE SEQUENCE": "RRIRCRPPRLPRPRPRPTCKPRP", "TEST RESULT": -0.184}
{"MACROMOLECULE SEQUENCE": "RRIRRRPPRLPRPRPRPLWNPRP", "TEST RESULT": 0.117}
{"MACROMOLECULE SEQUENCE": "RRIRLRPPRLPRPRPRPGSWPRP", "TEST RESULT": 0.18}
{"MACROMOLECULE SEQUENCE": "RRIRRRPPRLPRPRPRPNHGPRP", "TEST RESULT": -0.0793}
{"MACROMOLECULE SEQUENCE": "RRIRMRPPRLPRPRPRPKYIPRP", "TEST RESULT": -0.161}
{"MACROMOLECULE SEQUENCE": "RRIRFRPPRLPRPRPRPEETPRP", "TEST RESULT": 0.00709}
{"MACROMOLECULE SEQUENCE": "RRIRPRPPRLPRPRPRPLVKPRP", "TEST RESULT": -0.0409}
{"MACROMOLECULE SEQUENCE": "RRIRTRPPRLPRPRPRPYHTPRP", "TEST RESULT": -0.723}
{"MACROMOLECULE SEQUENCE": "RRIRLRPPRLPRPRPRPACDPRP", "TEST RESULT": 0.15}
{"MACROMOLECULE SEQUENCE": "RRIRTRPPRLPRPRPRPNHRPRP", "TEST RESULT": -0.209}
{"MACROMOLECULE SEQUENCE": "RRIRGRPPRLPRPRPRPQTVPRP", "TEST RESULT": 0.19}
{"MACROMOLECULE SEQUENCE": "RRIRRRPPRLPRPRPRPYQNPRP", "TEST RESULT": -0.74}
{"MACROMOLECULE SEQUENCE": "RRIRQRPPRLPRPRPRPHKGPRP", "TEST RESULT": -0.214}
{"MACROMOLECULE SEQUENCE": "RRIRSRPPRLPRPRPRPDMRPRP", "TEST RESULT": 0.187}
{"MACROMOLECULE SEQUENCE": "RRIRRRPPRLPRPRPRPGFPPRP", "TEST RESULT": 3.88}
{"MACROMOLECULE SEQUENCE": "RRIRSRPPRLPRPRPRPYMHPRP", "TEST RESULT": -0.395}
{"MACROMOLECULE SEQUENCE": "RRIRRRPPRLPRPRPRPGPYPRP", "TEST RESULT": 0.18}
{"MACROMOLECULE SEQUENCE": "RRIRVRPPRLPRPRPRPDLWPRP", "TEST RESULT": 0.115}
{"MACROMOLECULE SEQUENCE": "RRIRARPPRLPRPRPRPCSTPRP", "TEST RESULT": -0.0691}
{"MACROMOLECULE SEQUENCE": "RRIRMRPPRLPRPRPRPIDRPRP", "TEST RESULT": -0.0322}
{"MACROMOLECULE SEQUENCE": "RRIRDRPPRLPRPRPRPTMNPRP", "TEST RESULT": 0.116}
{"MACROMOLECULE SEQUENCE": "RRIRSRPPRLPRPRPRPREPPRP", "TEST RESULT": 0.284}
{"MACROMOLECULE SEQUENCE": "RRIRIRPPRLPRPRPRPCLVPRP", "TEST RESULT": -0.687}
{"MACROMOLECULE SEQUENCE": "RRIRYRPPRLPRPRPRPLPMPRP", "TEST RESULT": -0.624}
{"MACROMOLECULE SEQUENCE": "RRIRDRPPRLPRPRPRPSNVPRP", "TEST RESULT": -0.0805}
{"MACROMOLECULE SEQUENCE": "RRIRPRPPRLPRPRPRPFYCPRP", "TEST RESULT": -0.212}
{"MACROMOLECULE SEQUENCE": "RRIRRRPPRLPRPRPRPEQGPRP", "TEST RESULT": 0.0344}
{"MACROMOLECULE SEQUENCE": "RRIRPRPPRLPRPRPRPPYGPRP", "TEST RESULT": -0.268}
{"MACROMOLECULE SEQUENCE": "RRIRGRPPRLPRPRPRPRFLPRP", "TEST RESULT": 0.448}

---

- Tested on: Escherichia coli TOP10;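 further: peptides expressed intracellularly from a pBAD plasmid library in pooled LB shake-flask culture, induced with 0.3% L-arabinose, DNA abundance read by NGS, three biological replicates, DESeq2 with apeglm shrinkage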
- METHOD NOTES: shrunken log2 fold change of peptide-encoding DNA abundance (4.5 h post-induction vs induction); higher = less antimicrobial activity (less host growth inhibition)
- CONDITION PARAMETERS: time post-induction: 4.5 h; library: site-saturation at positions 5, 18, 19, 20
The recorded shrunken log2 fold change of each item maps onto one of these classes: low class: < -0.09; middle class: ≥ -0.09 and < 0.05; high class: ≥ 0.05

{"MACROMOLECULE SEQUENCE": "RRIRSRPPRLPRPRPRPDLNPRP", "ASSIGNED CATEGORY": "middle class"}
{"MACROMOLECULE SEQUENCE": "RRIRPRPPRLPRPRPRPFHGPRP", "ASSIGNED CATEGORY": "low class"}
{"MACROMOLECULE SEQUENCE": "RRIRKRPPRLPRPRPRPSMSPRP", "ASSIGNED CATEGORY": "high class"}
{"MACROMOLECULE SEQUENCE": "RRIRDRPPRLPRPRPRPSEDPRP", "ASSIGNED CATEGORY": "middle class"}
{"MACROMOLECULE SEQUENCE": "RRIRERPPRLPRPRPRPRLFPRP", "ASSIGNED CATEGORY": "middle class"}
{"MACROMOLECULE SEQUENCE": "RRIRVRPPRLPRPRPRPRCYPRP", "ASSIGNED CATEGORY": "low class"}
{"MACROMOLECULE SEQUENCE": "RRIRIRPPRLPRPRPRPCRNPRP", "ASSIGNED CATEGORY": "low class"}
{"MACROMOLECULE SEQUENCE": "RRIRIRPPRLPRPRPRPWMSPRP", "ASSIGNED CATEGORY": "low class"}
{"MACROMOLECULE SEQUENCE": "RRIRNRPPRLPRPRPRPVIVPRP", "ASSIGNED CATEGORY": "low class"}
{"MACROMOLECULE SEQUENCE": "RRIRSRPPRLPRPRPRPQGRPRP", "ASSIGNED CATEGORY": "middle class"}
{"MACROMOLECULE SEQUENCE": "RRIRARPPRLPRPRPRPAHTPRP", "ASSIGNED CATEGORY": "high class"}
{"MACROMOLECULE SEQUENCE": "RRIRHRPPRLPRPRPRPKMEPRP", "ASSIGNED CATEGORY": "middle class"}
{"MACROMOLECULE SEQUENCE": "RRIRSRPPRLPRPRPRPCHHPRP", "ASSIGNED CATEGORY": "low class"}
{"MACROMOLECULE SEQUENCE": "RRIRMRPPRLPRPRPRPVYGPRP", "ASSIGNED CATEGORY": "low class"}
{"MACROMOLECULE SEQUENCE": "RRIRSRPPRLPRPRPRPNWFPRP", "ASSIGNED CATEGORY": "middle class"}
{"MACROMOLECULE SEQUENCE": "RRIRERPPRLPRPRPRPLIFPRP", "ASSIGNED CATEGORY": "low class"}
{"MACROMOLECULE SEQUENCE": "RRIRMRPPRLPRPRPRPDCDPRP", "ASSIGNED CATEGORY": "high class"}
{"MACROMOLECULE SEQUENCE": "RRIRVRPPRLPRPRPRPQKTPRP", "ASSIGNED CATEGORY": "high class"}
{"MACROMOLECULE SEQUENCE": "RRIRRRPPRLPRPRPRPLSHPRP", "ASSIGNED CATEGORY": "middle class"}
{"MACROMOLECULE SEQUENCE": "RRIRNRPPRLPRPRPRPELCPRP", "ASSIGNED CATEGORY": "high class"}
{"MACROMOLECULE SEQUENCE": "RRIRQRPPRLPRPRPRPRDMPRP", "ASSIGNED CATEGORY": "middle class"}
{"MACROMOLECULE SEQUENCE": "RRIRLRPPRLPRPRPRPPEDPRP", "ASSIGNED CATEGORY": "high class"}
{"MACROMOLECULE SEQUENCE": "RRIRPRPPRLPRPRPRPWEEPRP", "ASSIGNED CATEGORY": "high class"}
{"MACROMOLECULE SEQUENCE": "RRIRMRPPRLPRPRPRPISEPRP", "ASSIGNED CATEGORY": "high class"}
{"MACROMOLECULE SEQUENCE": "RRIRKRPPRLPRPRPRPSTVPRP", "ASSIGNED CATEGORY": "low class"}
{"MACROMOLECULE SEQUENCE": "RRIRERPPRLPRPRPRPDVLPRP", "ASSIGNED CATEGORY": "low class"}
{"MACROMOLECULE SEQUENCE": "RRIRNRPPRLPRPRPRPMDCPRP", "ASSIGNED CATEGORY": "high class"}
{"MACROMOLECULE SEQUENCE": "RRIRARPPRLPRPRPRPLWNPRP", "ASSIGNED CATEGORY": "high class"}
{"MACROMOLECULE SEQUENCE": "RRIRKRPPRLPRPRPRPSACPRP", "ASSIGNED CATEGORY": "middle class"}
{"MACROMOLECULE SEQUENCE": "RRIRKRPPRLPRPRPRPCHSPRP", "ASSIGNED CATEGORY": "middle class"}

Source of measurements: the supplement of paper PMC9112550
